As shown below, each of these compounds has a reported MIC value.
# System: Aspergillus fumigatus
# assay_notes: Minimum inhibitory concentration of compound for antifungal activity against Aspergillus fumigatus
# Assay type: functional

Input: Given the compound OC(Cn1cncn1)(Cn1cncn1)c1ccc(F)cc1F [FLUCONAZOLE] , what is its reported MIC?
Output: > 10 µM

Input: Given the compound CCCCOc1ccc(S(=O)(=O)N(Cc2cncn2C)C(C)C2CCCCC2)cc1 (stereo not drawn) , what is its reported MIC?
Output: > 10 µM

Input: Given the compound CC(=O)N1CCN(c2ccc(OC[C@H]3CO[C@](Cn4ccnc4)(c4ccc(Cl)cc4Cl)O3)cc2)CC1 [KETOCONAZOLE] , what is its reported MIC?
Output: 10 µM
